test.target: HIF-2α (Homo sapiens)
Construct: endogenous in cells; host or cells: 786-O cells (ATCC CRL-1932) stably carrying the Cignal Lenti HIF Luc Reporter
Sequence (Q99814 whole entry): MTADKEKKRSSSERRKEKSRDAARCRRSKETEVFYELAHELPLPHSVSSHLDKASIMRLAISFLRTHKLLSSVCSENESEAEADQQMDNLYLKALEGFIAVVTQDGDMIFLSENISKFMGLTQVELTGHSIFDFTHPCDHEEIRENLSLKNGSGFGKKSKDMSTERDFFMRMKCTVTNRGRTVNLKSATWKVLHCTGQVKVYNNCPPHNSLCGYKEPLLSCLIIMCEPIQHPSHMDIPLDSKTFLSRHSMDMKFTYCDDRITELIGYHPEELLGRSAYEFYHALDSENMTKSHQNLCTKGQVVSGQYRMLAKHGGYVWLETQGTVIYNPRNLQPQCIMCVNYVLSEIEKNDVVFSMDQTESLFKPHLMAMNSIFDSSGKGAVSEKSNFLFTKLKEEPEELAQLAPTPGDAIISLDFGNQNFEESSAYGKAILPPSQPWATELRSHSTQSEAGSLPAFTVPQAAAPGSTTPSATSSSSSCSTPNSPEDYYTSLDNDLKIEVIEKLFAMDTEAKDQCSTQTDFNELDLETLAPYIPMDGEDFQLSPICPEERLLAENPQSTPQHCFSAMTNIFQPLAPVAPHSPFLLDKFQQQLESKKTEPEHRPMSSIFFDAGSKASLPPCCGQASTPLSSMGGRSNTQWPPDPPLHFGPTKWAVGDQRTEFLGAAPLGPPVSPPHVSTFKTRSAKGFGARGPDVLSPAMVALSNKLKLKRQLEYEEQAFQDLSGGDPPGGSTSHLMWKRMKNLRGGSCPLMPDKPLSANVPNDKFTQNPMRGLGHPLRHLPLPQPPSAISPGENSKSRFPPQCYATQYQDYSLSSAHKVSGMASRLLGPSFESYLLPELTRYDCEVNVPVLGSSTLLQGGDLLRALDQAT
test.protocol: HIF-2α Luciferase Reporter Assay
Assay type: cell-based
experimental.conditions: HIF-Luc-786-0 cells, 20 hours incubation, luciferase activity; read-out: HIF-2α Luciferase Assay
pIC50: −log10 of the molar value.
Measured pIC50 values are reported for all entries that follow.

Observe how each entry below is paired with its result.
input: What value of measured pIC50 is listed for "N#Cc1ccc(F)c(Oc2ccc(S(=O)(=O)C(F)(F)F)c3[nH]ncc23)c1" ?
output: < 5.00

input: What about this compound? "O=S(=O)(c1ccc(NCc2cc(Cl)cc(Cl)c2)c2cn[nH]c12)C(F)(F)F"
output: < 5.00

input: What about this compound? "CS(=O)(=O)c1ccc(Oc2ccc(Cl)c(Cl)c2)c2cn[nH]c12"
output: 5.00 to 6.00

Next:
input: What value of measured pIC50 is listed for "O=S(=O)(c1ccc(NCc2ccc(F)cc2Cl)c2cn[nH]c12)C(F)(F)F" ?
output: < 5.00

input: What about this compound? "CS(=O)(=O)c1ccc(Oc2cccc(Cl)c2)c2cn[nH]c12"
output: 5.00 to 6.00

input: What about this compound? "O=S(=O)(c1ccc(Oc2cc(F)cc(Cl)c2)c2cn[nH]c12)C(F)(F)F"
output: 5.00 to 6.00

input: What about this compound? "N#Cc1cc(Oc2ccc(S(=O)(=O)C(F)(F)F)c3[nH]ncc23)ccc1F"
output: < 5.00

input: What about this compound? "O=S(=O)(c1ccc(Nc2cc(F)cc(F)c2)c2cn[nH]c12)C(F)(F)F"
output: < 5.00

input: What about this compound? "O=S(=O)(c1ccc(Oc2cncc(Cl)c2)c2cn[nH]c12)C(F)(F)F"
output: 5.00 to 6.00

input: What about this compound? "Fc1cc(Cl)cc(Oc2cnc(C(F)(F)F)c3[nH]ncc23)c1"
output: 5.00 to 6.00
